experiment: in vivo; settings: rat
endpoint: half-life (h)
Answers are plain numbers, in h.

Query :: What value of half-life has been recorded for this entry: Cc1nnc(-c2ccc(F)c(-c3c(=O)ccn4nc(Oc5ccc(F)cc5F)ccc34)c2)o1
Result :: 4.4

----------
experiment: in vivo; conditions: rat, plasma
endpoint: AUC (µM·h)
One number for each entry, in µM·h.

Query :: May I ask what AUC has been recorded for Cc1nnc(-c2ccc(F)c(-c3c(=O)ccn4nc(Oc5ccc(F)cc5F)ccc34)c2)o1 ?
Result :: 20

----------
assay: in vivo; conditions: rhesus monkey, plasma
endpoint: AUC (µM·h)
Numbers only, in µM·h.

Query :: What value of measured AUC is listed for Cc1nnc(-c2ccc(F)c(-c3c(=O)ccn4nc(Oc5ccc(F)cc5F)ccc34)c2)o1 ?
Result :: 5.6

----------
experiment: in vivo; settings: dog, po, 2 mg/kg
endpoint: bioavailability (%)
Answers are plain numbers, in %.

Query :: Quick one: bioavailability of Cc1nnc(-c2ccc(F)c(-c3c(=O)ccn4nc(Oc5ccc(F)cc5F)ccc34)c2)o1 ?
Result :: 15

----------
assay: in vivo; conditions: dog
endpoint: half-life (h)
Answers are plain numbers, in h.

Query :: Entry Cc1nnc(-c2ccc(F)c(-c3c(=O)ccn4nc(Oc5ccc(F)cc5F)ccc34)c2)o1 has what half-life?
Result :: 4.5
